A collection of sequences and their measured PBM binding z-score
- Tested on: RARa:RXR (NR concentration 270 nM, RXRa partner concentration 90 nM)
- protocolDetails: PBM binding z-score (relative to random genomic background probes); higher = stronger binding; sequences stand for … in GC…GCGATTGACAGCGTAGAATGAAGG
Reply: number alone, nothing else.

Example results:
# sequenceEntry, quantityName, valueObserved
data = [
    ("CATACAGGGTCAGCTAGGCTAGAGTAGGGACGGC", "PBM binding z-score", 2.72),
    ("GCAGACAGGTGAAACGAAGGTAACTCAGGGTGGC", "PBM binding z-score", 0.681),
    ("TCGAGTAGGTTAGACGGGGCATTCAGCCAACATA", "PBM binding z-score", -0.135),
]

Under RARa:RXR (NR concentration 270 nM, RXRa partner concentration 90 nM): PBM binding z-score value of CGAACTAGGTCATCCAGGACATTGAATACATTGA ?
2.82

Now this one: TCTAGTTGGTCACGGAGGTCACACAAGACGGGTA
4.17

And then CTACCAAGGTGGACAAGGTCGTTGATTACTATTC , what is it?
1.16

Repeat with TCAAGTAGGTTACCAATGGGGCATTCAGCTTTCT
0.518

Same read-out for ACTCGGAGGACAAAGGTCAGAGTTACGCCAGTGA ?
5.54

What do you have for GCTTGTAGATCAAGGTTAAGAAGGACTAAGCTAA ?
0.701

====

Each entry below lists one item and its recorded PBM binding z-score value.
- System: RARb:RXRa (NR concentration 270 nM, RXRa partner concentration 90 nM)
- protocolDetails: PBM binding z-score (relative to random genomic background probes); higher = stronger binding; sequences stand for … in GC…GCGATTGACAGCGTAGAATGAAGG
Returns: the value as a bare number; no unit string appended.

# sequenceEntry, target, quantityName, valueObserved
records = [
    ("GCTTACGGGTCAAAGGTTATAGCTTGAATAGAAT", "RARb:RXRa (NR concentration 270 nM, RXRa partner concentration 90 nM)", "PBM binding z-score", 4.34),
    ("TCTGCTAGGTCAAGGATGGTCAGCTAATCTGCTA", "RARb:RXRa (NR concentration 270 nM, RXRa partner concentration 90 nM)", "PBM binding z-score", 3.97),
    ("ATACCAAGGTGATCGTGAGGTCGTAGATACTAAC", "RARb:RXRa (NR concentration 270 nM, RXRa partner concentration 90 nM)", "PBM binding z-score", 1.33),
]

What PBM binding z-score value was documented for this sequence, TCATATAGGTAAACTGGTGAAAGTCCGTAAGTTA ?
0.361

Let us now turn to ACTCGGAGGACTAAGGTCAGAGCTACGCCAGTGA
2.88

And what about the sequence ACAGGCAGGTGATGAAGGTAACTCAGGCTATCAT ?
0.121

====

- System: FXR:RXRa (NR concentration 270 nM, RXRa partner concentration 90 nM)
- protocolDetails: PBM binding z-score (relative to random genomic background probes); higher = stronger binding; sequences stand for … in GC…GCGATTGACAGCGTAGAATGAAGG
Measured PBM binding z-score values are reported for all entries that follow.

# sequenceEntry, quantityName, valueObserved
rows = [
    ("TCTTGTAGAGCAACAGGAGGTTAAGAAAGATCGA", "PBM binding z-score", 0.207),
    ("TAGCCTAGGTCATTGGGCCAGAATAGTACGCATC", "PBM binding z-score", 4.53),
    ("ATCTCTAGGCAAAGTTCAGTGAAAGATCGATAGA", "PBM binding z-score", 0.723),
    ("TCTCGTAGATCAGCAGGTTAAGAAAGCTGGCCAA", "PBM binding z-score", -0.53),
    ("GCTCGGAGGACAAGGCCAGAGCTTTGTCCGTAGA", "PBM binding z-score", -0.721),
]

Kindly review the next sequence as well.
// returns reported PBM binding z-score for input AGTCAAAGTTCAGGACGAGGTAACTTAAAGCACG
4.45

Numbers sourced from the supplement of paper PMC6555819.
